B1: ZBED3 (parent)
chain: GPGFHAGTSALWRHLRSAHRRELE

Variants of: B1
Assay: protein stability index of a GFP-peptide fusion (GPS, HEK-293T) (PSI 1-6); higher = more stable;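 also: lentivirally expressed fusions sorted by FACS into six bins by GFP to DsRed ratio, PSI derived from sequencing read proportions per bin multiplied by bin number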
Details: c terminus: a fixed tail appended
Readings of protein stability index for the listed variants
Enter the number alone.

[[record]]
mutation_code = "E24A"
attribute_measured = "protein stability index"
measured_value = 2.02

[[record]]
mutation_code = "E22N"
attribute_measured = "protein stability index"
measured_value = 1.95

[[record]]
mutation_code = "G1P"
attribute_measured = "protein stability index"
measured_value = 3.04

[[record]]
mutation_code = "P2L"
attribute_measured = "protein stability index"
measured_value = 2.5

[[record]]
mutation_code = "S17E"
attribute_measured = "protein stability index"
measured_value = 2.78

[[record]]
mutation_code = "E24P"
attribute_measured = "protein stability index"
measured_value = 1.93

[[record]]
mutation_code = "S9N"
attribute_measured = "protein stability index"
measured_value = 2.68

[[record]]
mutation_code = "W12A"
attribute_measured = "protein stability index"
measured_value = 3.38

[[record]]
mutation_code = "A10I"
attribute_measured = "protein stability index"
measured_value = 1.85

[[record]]
mutation_code = "A10R"
attribute_measured = "protein stability index"
measured_value = 3.4


input: # get_value(readout='protein stability index', item= P2E )
output: 3.53

input: # get_value(readout='protein stability index', item= L11D )
output: 3.33

input: # get_value(readout='protein stability index', item= R21P )
output: 1.95

input: # get_value(readout='protein stability index', item= G3W )
output: 1.96

input: # get_value(readout='protein stability index', item= A10D )
output: 3.22

input: # get_value(readout='protein stability index', item= S9E )
output: 3.25
